Known IC50 of a selection of compounds
Target: HCV NS5B RdRp genotype 1b (Hepatitis C virus genotype 1b, UniProt Q9WMX2)
Construct: The protein was expressed with an 18 amino acid C-terminal truncation to enhance the solubility; made in house; host or cells: E. coli BL21(DE3), pET21a vector
Sequence (Q9WMX2 2420-2992): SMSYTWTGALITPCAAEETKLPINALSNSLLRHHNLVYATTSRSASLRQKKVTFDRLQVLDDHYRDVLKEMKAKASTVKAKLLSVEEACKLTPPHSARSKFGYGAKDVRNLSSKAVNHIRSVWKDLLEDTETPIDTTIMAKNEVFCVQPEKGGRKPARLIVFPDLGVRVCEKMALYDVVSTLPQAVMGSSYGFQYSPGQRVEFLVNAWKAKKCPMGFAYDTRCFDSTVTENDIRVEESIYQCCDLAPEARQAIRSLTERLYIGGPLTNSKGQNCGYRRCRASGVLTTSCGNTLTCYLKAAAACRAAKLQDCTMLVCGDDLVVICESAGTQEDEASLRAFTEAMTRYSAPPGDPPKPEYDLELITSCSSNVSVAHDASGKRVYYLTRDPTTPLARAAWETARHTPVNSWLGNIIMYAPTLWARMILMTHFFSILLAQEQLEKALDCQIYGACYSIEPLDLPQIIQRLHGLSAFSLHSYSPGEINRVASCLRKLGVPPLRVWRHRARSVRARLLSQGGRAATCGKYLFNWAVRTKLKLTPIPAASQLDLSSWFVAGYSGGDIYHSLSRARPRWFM
Experiment: HCV NS5B RdRp enzyme assay (standard / modified)
Type: biochemical

Below, each entry is followed by its recorded IC50 result.
| Compound | IC50 |
| --- | --- |
| CCC(C)S(=O)(=O)NC(=O)c1ccc2c(C3CCCCC3)c3n(c2c1)CC(C(=O)N1C2CCC1CN(C)C2)=Cc1cc(OC)ccc1-3 (stereo not shown) | 0.001 to 0.5 µM |
| COc1ccc2c(c1)C1CC1(C(=O)N1C3CCC1CN(C)C3)Cn1c-2c(C2CCCCC2)c2ccc(C(=O)NS(C)(=O)=O)cc21 (stereo not shown) [drawing 89] | 0.001 to 0.5 µM |
| COc1ccc2c(c1)C1CC1(C(=O)N1C3CCC1CN(C)C3)Cn1c-2c(C2CCCCC2)c2ccc(C(=O)NS(=O)(=O)CC(F)F)cc21 (stereo not shown) | 0.001 to 0.5 µM |

We next turn to a different compound, shown below.
Problem: What value of measured IC50 is listed for COc1ccc2c(c1)C1CC1(C(=O)N1[C@@H]3CC[C@H]1CN(C(=O)N(C)C)C3)Cn1c-2c(C2CCCCC2)c2ccc(C(=O)NS(=O)(=O)N(C)C)cc21 (stereo partly shown) ?
Result: 0.001 to 0.5 µM
